Form field: Vd (one value per entry).
# test: Volume of distribution in rat at 1 mg/kg, iv
# Type: ADME, organism-based
# Set-up: dose 1 mg/kg, route intravenous
# condition.info: in vivo

smi	Vd
CO/N=C(\C)c1ccc2c(c1)c1c3c(c4c(c1n2CC(C)C)CCc1nn(C)cc1-4)C(=O)NC3	0.8 L/kg
CCO/N=C(\C)c1ccc2c(c1)c1c3c(c4c(c1n2C(C)C)CCc1nn(C)cc1-4)C(=O)NC3	1.3 L/kg

---

# test: AUC (0 to infinity) in rat at 1 mg/kg, iv
# Assay type: ADME, organism-based
# Set-up: time infinity, dose 1 mg/kg, route intravenous
# condition.info: plasma

smi	AUC(0-inf), ng·h/mL
CO/N=C(\C)c1ccc2c(c1)c1c3c(c4c(c1n2CC(C)C)CCc1nn(C)cc1-4)C(=O)NC3	2760
CCO/N=C(\C)c1ccc2c(c1)c1c3c(c4c(c1n2C(C)C)CCc1nn(C)cc1-4)C(=O)NC3	2300
